protocol-description: cn = amount concentration of the nth substance listed, in mol/dm3
protocol-conditions: 303 K, Ring tensiometer, c1 = 0.0002
property-name: surface tension liquid-gas (mN/m)
Give bare numbers, in mN/m.

Answered examples (3):
CCCCCCCCCCCCOS(=O)(=O)[O-].[Na+] [sodium dodecyl sulfate] + O :: 69.29
CCCCCCCCCCCCCCCC[N+](C)(C)C.[Br-] [N,N,N-trimethyl-1-hexadecanaminium bromide] + O :: 60.52
CCCCCCCCCCCCCCCC[n+]1ccccc1.[Br-] [1-hexadecylpyridinium bromide] + O :: 53.41

Next compound, please.
Incoming: Given the entry CCCCCCCCCCCCCCCCS(=O)(=O)[O-].[Na+] [sodium hexadecylsulfonate] + O , report its measured surface tension liquid-gas.
Outgoing: 58.94

Sourced from the NIST ThermoML archive (doi:10.1016/j.fluid.2012.01.014)
